Experiment: Volume of distribution at steady state in beagle dog by LC-MS/MS analysis
Format: ADME, Canis lupus familiaris
Details: in vivo, read-out: Vdss
Measured property: Vd (L/kg)
Answer with a number only, understood to be in L/kg.

Sample O=C(c1cnc(NCc2cnccn2)nc1)N1CCC2(CCOCC2)C1 — what was its Vd?
0.94

----------
Assay: Plasma protein binding in Wistar han rat assessed as unbound fraction
Assay type: ADME, cell-free
Measured property: fraction unbound
Reply with the value as a number alone.

Sample O=C(c1cnc(NCc2cnccn2)nc1)N1CCC2(CCOCC2)C1 — what was its fraction unbound?
0.812

----------
Biological target: Biotinidase (Homo sapiens, UniProt P43251)
Sequence (P43251 21-543): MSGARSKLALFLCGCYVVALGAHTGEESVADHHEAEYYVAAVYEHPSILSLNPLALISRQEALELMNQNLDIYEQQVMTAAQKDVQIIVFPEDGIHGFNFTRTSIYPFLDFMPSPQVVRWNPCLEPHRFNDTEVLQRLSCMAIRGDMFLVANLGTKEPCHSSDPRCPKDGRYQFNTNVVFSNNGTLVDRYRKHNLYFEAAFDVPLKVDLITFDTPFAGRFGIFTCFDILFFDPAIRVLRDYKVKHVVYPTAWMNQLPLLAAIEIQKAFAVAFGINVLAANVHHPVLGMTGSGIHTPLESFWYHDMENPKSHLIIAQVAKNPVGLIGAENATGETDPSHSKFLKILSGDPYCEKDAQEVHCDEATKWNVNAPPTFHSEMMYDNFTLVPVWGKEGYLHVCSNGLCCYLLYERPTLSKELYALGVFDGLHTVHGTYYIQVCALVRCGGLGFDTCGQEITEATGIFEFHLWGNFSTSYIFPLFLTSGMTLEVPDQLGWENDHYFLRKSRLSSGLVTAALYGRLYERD
Test: Inhibition of N-terminal FLAG/His6-tagged human biotinidase expressed in COS cells using biotinyl-7-amino-4-trifluoromethylcoumarin as substrate preincubated for 10 mins followed by substrate addition and measured after 90 mins
Reported IC50 values follow for various compounds
Answer with a number only, understood to be in µM.

Some entries whose results are on file:
smiles_repr=O=C(c1cnc(NC2(c3cncnc3)COC2)nc1)N1CCC2(CCOCC2)C1 units_text=µM number=1.3
smiles_repr=N#Cc1cccc(C(=O)c2cnc(NC3(c4cncnc4)CC3)nc2)c1 units_text=µM number=24

Sample C[C@H](Nc1ncc(C(=O)N2CC3(CCOCC3)C2)cn1)c1cnccn1 — what was its IC50?
0.04

----------
Assay: Volume of distribution in rat at 2 mg/kg, iv measured upto 24 hrs by LC-MS/MS analysis
Assay type: ADME, organism-based
Settings: in vivo
Measured property: Vd (L/kg)
Answer with a number only, understood to be in L/kg.

Sample O=C(c1cnc(NCc2cnccn2)nc1)N1CCC2(CCOCC2)C1 [PFI-653] — what was its Vd?
0.84

----------
Target: Caspase-1 (Homo sapiens)
Sequence (P29466 120-297 limits assumed): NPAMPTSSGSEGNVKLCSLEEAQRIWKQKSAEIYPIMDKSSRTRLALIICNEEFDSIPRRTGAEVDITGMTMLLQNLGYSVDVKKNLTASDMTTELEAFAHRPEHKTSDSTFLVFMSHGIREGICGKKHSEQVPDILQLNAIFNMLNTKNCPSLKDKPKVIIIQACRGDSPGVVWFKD
Sequence (P29466 317-404 limits assumed): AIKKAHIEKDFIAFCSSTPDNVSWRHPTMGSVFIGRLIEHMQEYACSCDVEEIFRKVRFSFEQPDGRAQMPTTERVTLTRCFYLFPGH
Measured property: IC50

Sample O=C(c1cnc(NC2(c3cncnc3)CC2)nc1)N1CCCCC1 — what was its IC50?
> 10 µM

----------
Target: UniProtKB P42574
Sequence (P42574 whole entry): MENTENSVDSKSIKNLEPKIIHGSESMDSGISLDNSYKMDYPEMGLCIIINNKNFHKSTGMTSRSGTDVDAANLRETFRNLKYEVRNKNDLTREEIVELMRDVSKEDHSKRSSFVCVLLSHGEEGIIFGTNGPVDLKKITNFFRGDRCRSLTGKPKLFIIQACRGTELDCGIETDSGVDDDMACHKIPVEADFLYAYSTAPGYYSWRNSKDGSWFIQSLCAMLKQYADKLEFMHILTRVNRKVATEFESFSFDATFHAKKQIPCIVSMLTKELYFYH
pIC50: −log10 of the molar value.
Measured property: pIC50

Sample O=C(c1cnc(NC2(c3cncnc3)CC2)nc1)N1CCCCC1 — what was its pIC50?
< 5.00

----------
Target: Pantetheinase (Homo sapiens, UniProt O95497)
Sequence (O95497 whole entry): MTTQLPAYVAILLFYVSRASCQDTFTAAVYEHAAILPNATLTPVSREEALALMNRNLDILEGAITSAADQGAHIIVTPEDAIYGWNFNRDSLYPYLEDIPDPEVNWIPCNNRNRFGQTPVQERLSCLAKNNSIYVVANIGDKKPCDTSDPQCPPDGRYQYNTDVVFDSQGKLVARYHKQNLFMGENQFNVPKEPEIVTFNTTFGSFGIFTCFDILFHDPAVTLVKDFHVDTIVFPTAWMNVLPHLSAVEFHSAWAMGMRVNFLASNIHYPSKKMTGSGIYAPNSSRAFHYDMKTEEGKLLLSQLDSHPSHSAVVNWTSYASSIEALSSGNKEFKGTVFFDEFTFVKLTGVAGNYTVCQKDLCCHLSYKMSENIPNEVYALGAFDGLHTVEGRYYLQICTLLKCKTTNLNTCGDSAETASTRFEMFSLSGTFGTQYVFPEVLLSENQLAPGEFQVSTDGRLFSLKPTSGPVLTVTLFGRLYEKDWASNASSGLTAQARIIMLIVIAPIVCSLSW
Experiment: Inhibition of human plasma vanin-1 using pantetheine-7-amino-4-trifluoromethykournarin as substrate preincubated for 30 mins followed by substrate addition
Format: cell-free
Measured property: IC50 (nM)
Answer with a number only, understood to be in nM.

smiles_repr=N#Cc1cccc(C(=O)c2cnc(NC3(c4cncnc4)CC3)nc2)c1 units_text=nM number=12

Form field: IC50 recorded for CC(C)(Nc1ncc(C(=O)N2CC3(CCOCC3)C2)cn1)c1cnccn1 with Pantetheinase (Homo sapiens, UniProt O95497) (enter value)
0.88

----------
Experiment: Apparent intrinsic clearance in mouse liver microsome
Assay type: ADME
Conditions: liver microsomes, read-out: CLH
Measured property: CLint scaled

Sample N#Cc1cccc(C(=O)c2cnc(NC3(c4cncnc4)CC3)nc2)c1 — what was its CLint scaled?
39 mL/min/kg

----------
Assay: Apparent permeability across apical to basolateral side in RRCK cells
Conditions: dog, MDCK
Reported Papp A→B values follow for various compounds
Answer with a number only, understood to be in ×10⁻⁶ cm/s.

Some entries whose results are on file:
compound=Cc1cccc(C(=O)c2cnc(NCc3cccnc3)nc2)c1 measured_property="Papp A→B" number=17
compound=C[C@H](Nc1ncc(C(=O)N2CCC3(CCOCC3)C2)cn1)c1cnccn1 measured_property="Papp A→B" number=14

Turning to the following compound.
Sample CC(C)(Nc1ncc(C(=O)N2CCC3(CCOCC3)C2)cn1)c1cncnc1 — what was its Papp A→B?
4

----------
Test: Intrinsic clearance in human liver microsomes
Format: ADME, Microsome
Measured property: Intrinsic clearance (µL/min/mg)
Answer with a number only, understood to be in µL/min/mg.

smiles_repr=O=C(c1cnc(NC2(c3cnccn3)CCC2)nc1)N1CC2(CCOCC2)C1 number=19

Sample O=C(c1cnc(NCc2cccnc2)nc1)c1cccs1 — what was its Intrinsic clearance?
14.5

Sample O=C(c1ccccc1)c1cnc(NCc2cccnc2)nc1 — what was its Intrinsic clearance?
29

Sample O=C(c1cnc(NCc2cncnc2)nc1)N1CCC2(CCOCC2)C1 — what was its Intrinsic clearance?
12

Sample N#Cc1cccc(C(=O)c2cnc(NCc3cncnc3)nc2)c1 — what was its Intrinsic clearance?
16

----------
Assay: Inhibition of beagle dog vanin-1
Measured property: IC50
I'd appreciate it if you included the unit after the number.

Sample O=C(c1cnc(NCc2cnccn2)nc1)N1CCC2(CCOCC2)C1 — what was its IC50?
900 pM

----------
Reported AUC at 24 h values follow for various molecules
Experiment: AUC in rat at 10 mg/kg, po measured upto 24 hrs by LC-MS/MS analysis
Format: ADME, organism-based
Set-up: route oral, dose 10 mg/kg, time <=24
Details: in vivo
Answer with a number only, understood to be in ng·h/mL.

smiles_repr=C[C@H](Nc1ncc(C(=O)N2CCC3(CCOCC3)C2)cn1)c1cnccn1 number=2250

Turning to the following molecule.
Sample O=C(c1cnc(NCc2cnccn2)nc1)N1CCC2(CCOCC2)C1 — what was its AUC at 24 h?
8540

----------
Assay: Oral bioavailability in mouse
Type: ADME, organism-based
Conditions: in vivo
Measured property: bioavailability (%)
Answer with a number only, understood to be in %.

Sample N#Cc1cccc(C(=O)c2cnc(NC3(c4cncnc4)CC3)nc2)c1 — what was its bioavailability?
29

----------
Reported CLint values follow for various molecules
Assay: Intrinsic clearance in rat hepatocytes assessed per million cells
Type: ADME, cell-based, Hepatocyte
Answer with a number only, understood to be in µL/min/1e6 cells.

Some entries whose results are on file:
smiles_repr=C[C@H](Nc1ncc(C(=O)N2CCC3(CCOCC3)C2)cn1)c1cnccn1 measured_property=CLint number=6
smiles_repr=CC(C)(Nc1ncc(C(=O)N2CC3(CCOCC3)C2)cn1)c1cnccn1 measured_property=CLint number=25.8

Turning to the following molecule.
Sample O=C(c1cnc(NC2(c3cncnc3)CC2)nc1)N1CCCCC1 — what was its CLint?
45

----------
Test: Half life in rat
Type: ADME
Settings: in vivo
Measured property: half-life (min)
Answer with a number only, understood to be in min.

Sample O=C(c1cnc(NC2(c3cncnc3)CC2)nc1)N1CCCCC1 — what was its half-life?
9

----------
Test: Volume of distribution in rat at 1 mg/kg, iv measured upto 24 hrs by LC-MS/MS analysis
Type: ADME, organism-based
Settings: in vivo
Measured property: Vd (L/kg)
Answer with a number only, understood to be in L/kg.

Sample C[C@H](Nc1ncc(C(=O)N2CCC3(CCOCC3)C2)cn1)c1cnccn1 — what was its Vd?
0.98

----------
Target: Pantetheinase (Homo sapiens)
Sequence (O95497 whole entry): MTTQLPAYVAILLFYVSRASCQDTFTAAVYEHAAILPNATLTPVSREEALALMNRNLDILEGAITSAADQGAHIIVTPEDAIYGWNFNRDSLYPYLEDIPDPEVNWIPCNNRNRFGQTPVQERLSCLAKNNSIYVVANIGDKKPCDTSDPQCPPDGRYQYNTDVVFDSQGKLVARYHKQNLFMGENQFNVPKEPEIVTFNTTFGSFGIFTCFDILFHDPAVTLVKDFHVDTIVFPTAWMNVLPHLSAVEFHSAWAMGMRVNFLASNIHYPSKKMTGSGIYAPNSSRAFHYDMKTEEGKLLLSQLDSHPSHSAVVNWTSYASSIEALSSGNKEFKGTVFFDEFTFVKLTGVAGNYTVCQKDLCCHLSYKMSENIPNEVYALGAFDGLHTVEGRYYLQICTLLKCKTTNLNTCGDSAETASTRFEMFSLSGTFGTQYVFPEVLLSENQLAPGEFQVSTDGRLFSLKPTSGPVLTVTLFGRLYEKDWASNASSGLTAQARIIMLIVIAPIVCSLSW
Experiment: Inhibition of recombinant N-terminal FLAG/His6-tagged human vanin-1 expressed in CHO cells using Pantetheine-7-amino-4-trifluoromethykournarin as substrate preincubated for 30 mins followed by substrate addition and measured after 60 mins
pIC50: −log10 of the molar value.
Param threshold (8) applies to pIC50; output criterion met when value >= threshold, criterion not met when value < threshold.

Worked set:
compound=CC(C)(Nc1ncc(C(=O)N2CCC3(CCOCC3)C2)cn1)c1cncnc1 qualitative_label="criterion met"
compound="CS(=O)(=O)C1CCCN(C(=O)c2cnc(NC3(c4cncnc4)CC3)nc2)C1 (racemic)" qualitative_label="criterion not met"
compound=O=C(c1ccccc1)c1cnc(NCc2cccnc2)nc1 qualitative_label="criterion not met"
compound=N#C[C@@H]1CCCN(C(=O)c2cnc(NC3(c4cncnc4)CC3)nc2)C1 qualitative_label="criterion not met"
compound=Cc1cccc(C(=O)c2cnc(NCc3cccnc3)nc2)c1 qualitative_label="criterion not met"

Could you please find out whether O=C(c1cnc(NC2(c3cnccn3)CCC2)nc1)N1CCC2(CCOCC2)C1 has pIC50 that meets 8 or exceeds it?
criterion met

Could you please find out whether CC(C)(Nc1ncc(C(=O)N2CCC3(CCOCC3)C2)cn1)c1cnccn1 has pIC50 that meets 8 or exceeds it?
criterion met

Could you please find out whether N#C[C@H]1CCCN(C(=O)c2cnc(NC3(c4cncnc4)CC3)nc2)C1 has pIC50 that meets 8 or exceeds it?
criterion not met
